Reference source for all entries: ChEMBL document CHEMBL5584344

# protocol.description: Metabolic stability in human liver microsomes assessed as half life at 1.0 uM measured upto 120 mins in presence of NADPH by LC/MS analysis
# Type: ADME, Microsome
half-life at 1 µM by entry:
Please respond with the number in min and leave the unit unwritten.

molecule	half-life at 1 µM, min
Cc1ccccc1CN1C(=O)C2=C(CCN(Cc3ccccc3)C2)N2CCN=C12 [DORDAVIPRONE]	16

(Q) For the molecule shown here, O=C(c1ccc(F)cc1)C1CCN(CCn2c(=O)[nH]c3ccccc3c2=O)CC1 [KETANSERIN] , give the reported half-life at 1 µM.
(A) 39

(Q) For the molecule shown here, O=c1c2c(n3ccnc3n1Cc1ccc(C(F)(F)F)cc1)CCN(Cc1cccc(Cl)c1)C2 , give the reported half-life at 1 µM.
(A) 24
